Target: UniProt Q6PHR2
Sequence (Q6PHR2 1-472): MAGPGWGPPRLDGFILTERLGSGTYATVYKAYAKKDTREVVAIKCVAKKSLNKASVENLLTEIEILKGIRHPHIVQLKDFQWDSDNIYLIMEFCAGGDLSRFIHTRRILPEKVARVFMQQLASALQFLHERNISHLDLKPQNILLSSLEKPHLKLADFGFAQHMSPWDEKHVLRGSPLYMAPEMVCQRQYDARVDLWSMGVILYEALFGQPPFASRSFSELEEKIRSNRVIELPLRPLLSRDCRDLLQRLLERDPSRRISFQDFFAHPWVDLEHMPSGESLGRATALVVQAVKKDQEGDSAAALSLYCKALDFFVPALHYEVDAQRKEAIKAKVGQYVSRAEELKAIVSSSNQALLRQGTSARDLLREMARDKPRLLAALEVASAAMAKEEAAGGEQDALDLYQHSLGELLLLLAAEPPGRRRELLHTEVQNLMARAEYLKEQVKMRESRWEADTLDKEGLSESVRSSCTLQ
Assay: DSF (ULK3) thermal shift
Format: binding
experimental-endpoint: DSF (ULK3) ΔTm (° C.) (°C)

- molecule: "N#CCNC(=O)c1ccc(-c2ccnc(Nc3ccc(N4CCOCC4=O)cc3)n2)cc1 [BH1-090]"
  DSF (ULK3) ΔTm (° C.) [°C]: 7.5
- molecule: "CN1CCN(c2cc(F)cc(Nc3nccc(-c4ccc(C(=O)N5CCC[C@H]5C(F)(F)F)cc4)n3)c2)CC1 [BR1-053]"
  DSF (ULK3) ΔTm (° C.) [°C]: 10.5
- molecule: "CN1CCN(c2cccc(Nc3nccc(-c4ccc(C(=O)N5CCC[C@H]5C(F)(F)F)cc4)n3)c2)CC1 [BH2-013]"
  DSF (ULK3) ΔTm (° C.) [°C]: 10.9
- molecule: "COC[C@H](Cc1ccccc1)NC(=O)c1ccc(-c2ccnc(Nc3ccc(N4CCOCC4)cc3)n2)cc1 [BR1-012]"
  DSF (ULK3) ΔTm (° C.) [°C]: 5.8
- molecule: "Cc1cnc(Nc2ccc(N3CCOCC3)cc2)nc1-c1ccc(C(=O)NCC#N)cc1 [GM1-032]"
  DSF (ULK3) ΔTm (° C.) [°C]: 8.4

(P) CN1CCC(c2cnc(Nc3nc(-c4ccc(C(=O)NCC#N)cc4)c4cc[nH]c4n3)cc2F)CC1 [RF1-058]
(Q) Cc1cnc(Nc2ccc(C(=O)NC3CCN(C)CC3)c(F)c2)nc1Nc1ccc(Cl)c(NS(=O)(=O)C(C)(C)C)c1 [SG3-179, reference compound]
Which has the higher DSF (ULK3) ΔTm (° C.), P or Q ? Write the label of whichever entry you select.
Q
(Q: 10.6 °C, P: 6.8 °C)

----------
Target: UniProtKB Q6PHR2
Test: DSF (ULK3) thermal shift
Assay type: binding
experimental-endpoint: DSF (ULK3) ΔTm (° C.) (°C)

Consider the worked cases shown below.
- structure-notation: "CN1CCN(c2cc(F)cc(Nc3nccc(-c4ccc(C(=O)NCC(F)(F)F)cc4)n3)c2)CC1"
  reported-value: 11.1
- structure-notation: "Cc1cnc(Nc2ccc(N3CCOCC3=O)cc2)nc1-c1ccc(C(=O)NCC#N)cc1"
  reported-value: 8.1
- structure-notation: "CN1CCN(c2ccc(Nc3ncc(F)c(-c4ccc(C(=O)NCC#N)cc4)n3)cc2F)CC1"
  reported-value: 8.8
- structure-notation: "COC(=O)c1ccc(Nc2nccc(-c3ccc(C(=O)NCC(F)(F)F)cc3)n2)cc1F"
  reported-value: 6.9
- structure-notation: "COC[C@H](NC(=O)c1ccc(-c2ccnc(Nc3ccc(N4CCOCC4)cc3)n2)cc1)c1ccccc1"
  reported-value: 8.4

(P) O=C(N[C@H](CO)Cc1ccccc1)c1ccc(-c2ccnc(Nc3ccc(N4CCOCC4)cc3)n2)cc1
(Q) C[C@@H](NC(=O)c1ccc(-c2ccnc(Nc3ccc(N4CCOCC4)cc3)n2)cc1)C(F)(F)F
Which shows the larger DSF (ULK3) ΔTm (° C.) value: P or Q ? Let me know the label of the one you choose.
Q

(A) CC(C)[C@H](CO)NC(=O)c1ccc(-c2ccnc(Nc3ccc(N4CCOCC4)cc3)n2)cc1
(B) N#CCNC(=O)c1ccc(-c2ncnc3[nH]ccc23)cc1
Higher DSF (ULK3) ΔTm (° C.): A or B ? // caller expects the label of the chosen entry
A
(A: 7.9 °C, B: 5.1 °C)
